B1: RTP4 (parent)
chain: AFGWFRCSSCQRSWASAQVQILCH

- Variants of: B1
- Test details: protein stability index of a GFP-peptide fusion (GPS, HEK-293T) (PSI 1-6); higher = more stable;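 further: lentivirally expressed fusions sorted by FACS into six bins by GFP to DsRed ratio, PSI derived from sequencing read proportions per bin multiplied by bin number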
- Stated conditions: c terminus: a fixed tail appended
Below, each of the variants is paired with its reported protein stability index value.
Measured quantity: protein stability index

sequence_string="AFGWFRCSSCQRSWASAQVQCLCH [I21C]" result=3.07
sequence_string="AFGWFRCSSCQRSWASEQVQILCH [A17E]" result=2.93
sequence_string="AFGWFRHSSCQRSWASAQVQILCH [C7H]" result=2.97
